# measured_target: F508delCFTR (Homo sapiens, UniProt P13569, DEL508-508)
# Construct: expressed in transfected cells; host or cells: CFBE41o- human lung-derived epithelial cells (CFBE41o-F508delCFTR-HRP), doxycycline-inducible
# Sequence (P13569 with tags, fused parts or gaps DEL508-508): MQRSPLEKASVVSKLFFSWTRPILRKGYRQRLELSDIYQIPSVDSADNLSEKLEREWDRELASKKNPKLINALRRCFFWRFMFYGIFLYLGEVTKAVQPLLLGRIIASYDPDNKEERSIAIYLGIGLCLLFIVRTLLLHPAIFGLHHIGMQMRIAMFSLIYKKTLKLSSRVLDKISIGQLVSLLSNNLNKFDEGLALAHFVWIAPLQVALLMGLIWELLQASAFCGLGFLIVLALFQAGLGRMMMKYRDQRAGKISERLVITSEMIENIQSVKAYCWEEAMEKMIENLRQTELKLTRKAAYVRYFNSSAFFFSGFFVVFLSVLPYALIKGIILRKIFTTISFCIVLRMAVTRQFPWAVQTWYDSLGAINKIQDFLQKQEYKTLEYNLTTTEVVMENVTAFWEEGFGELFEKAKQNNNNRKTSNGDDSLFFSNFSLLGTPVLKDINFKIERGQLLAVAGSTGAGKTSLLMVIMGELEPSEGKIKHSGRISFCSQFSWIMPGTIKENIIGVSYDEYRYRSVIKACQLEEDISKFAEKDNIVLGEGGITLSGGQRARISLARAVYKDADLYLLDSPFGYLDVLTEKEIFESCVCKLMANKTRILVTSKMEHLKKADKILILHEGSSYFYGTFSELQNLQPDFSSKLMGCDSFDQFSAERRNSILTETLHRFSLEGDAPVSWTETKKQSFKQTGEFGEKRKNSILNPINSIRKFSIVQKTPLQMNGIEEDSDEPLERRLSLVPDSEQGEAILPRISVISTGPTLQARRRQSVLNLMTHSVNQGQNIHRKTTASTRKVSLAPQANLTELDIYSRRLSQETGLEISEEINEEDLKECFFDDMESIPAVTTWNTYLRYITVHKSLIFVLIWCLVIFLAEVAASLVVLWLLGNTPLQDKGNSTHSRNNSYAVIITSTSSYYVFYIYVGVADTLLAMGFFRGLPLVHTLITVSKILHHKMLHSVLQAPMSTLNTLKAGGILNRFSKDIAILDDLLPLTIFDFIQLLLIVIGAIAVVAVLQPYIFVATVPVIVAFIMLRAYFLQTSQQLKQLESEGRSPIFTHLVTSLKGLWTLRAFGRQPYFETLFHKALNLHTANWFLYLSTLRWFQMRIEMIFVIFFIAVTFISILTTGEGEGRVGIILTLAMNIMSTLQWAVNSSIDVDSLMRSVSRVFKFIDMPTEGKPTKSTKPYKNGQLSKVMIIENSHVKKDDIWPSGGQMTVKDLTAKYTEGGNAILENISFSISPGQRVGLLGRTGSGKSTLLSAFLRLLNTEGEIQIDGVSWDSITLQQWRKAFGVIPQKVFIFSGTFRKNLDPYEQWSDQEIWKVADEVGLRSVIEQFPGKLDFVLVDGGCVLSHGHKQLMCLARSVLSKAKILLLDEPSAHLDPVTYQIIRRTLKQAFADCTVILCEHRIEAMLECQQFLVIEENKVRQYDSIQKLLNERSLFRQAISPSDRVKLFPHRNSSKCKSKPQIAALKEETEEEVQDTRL
# assay_method_text: Cell Surface Expression-Horse Radish Peroxidase (CSE-HRP) assay, test compound without co-corrector
# Type: cell-based
# condition_details: test compound without co-corrector
Reported EC50 values for the following molecules.

INSERT INTO results (molecule, quantity_name, meas_value) VALUES
  ('O=C(NS(=O)(=O)c1cccc2ccccc12)C1CCCc2c(OCc3ccccc3)ccc(Br)c21 (stereo not drawn) [II-89]', 'EC50', '3 to 10 µM'),
  ('COc1cccc2c1CCC2C(=O)NS(=O)(=O)c1ccc(Cl)cc1Cl (stereo not drawn) [III-37]', 'EC50', '≥ 10 µM'),
  ('COc1cccc2c1CCC2C(=O)NS(=O)(=O)c1ncccc1C(=O)N(C)C (stereo not drawn) [III-82]', 'EC50', '≥ 10 µM'),
  ('COc1ccc(C2CCC2)c2c1[C@H](C(=O)NS(=O)(=O)c1cccc3ncn(C)c13)CC2 [Example I-126]', 'EC50', '< 3 µM');

## Task Consider the molecule COc1cccc2c1CCC2C(=O)NS(=O)(=O)c1cc(C)ccc1Cl (stereo not drawn) [III-39] and give its recorded EC50.
## Result ≥ 10 µM

## Task Consider the molecule CCC1(C(=O)NS(=O)(=O)c2cccc(C3CCC3)c2C)CCc2c(Cl)cccc21 (stereo not drawn) [II-112] and give its recorded EC50.
## Result 3 to 10 µM

## Task Consider the molecule COc1ccc2c(c1OC)CCCC2C(=O)NS(=O)(=O)c1cccc2ccccc12 (stereo not drawn) [II-51] and give its recorded EC50.
## Result 3 to 10 µM

## Task Consider the molecule COc1cccc2c1CCC2C(=O)NS(=O)(=O)c1ccc(NC(C)=O)cc1 (stereo not drawn) [III-41] and give its recorded EC50.
## Result ≥ 10 µM

## Task Consider the molecule Cc1ccccc1S(=O)(=O)NC(=O)C1(C)CCc2c1ccc(F)c2F (stereo not drawn) [II-20] and give its recorded EC50.
## Result 3 to 10 µM
